- target system: ACE2 (human, UniProt Q9BYF1 18-740)
- Sequence (Q9BYF1 18-740 limits assumed): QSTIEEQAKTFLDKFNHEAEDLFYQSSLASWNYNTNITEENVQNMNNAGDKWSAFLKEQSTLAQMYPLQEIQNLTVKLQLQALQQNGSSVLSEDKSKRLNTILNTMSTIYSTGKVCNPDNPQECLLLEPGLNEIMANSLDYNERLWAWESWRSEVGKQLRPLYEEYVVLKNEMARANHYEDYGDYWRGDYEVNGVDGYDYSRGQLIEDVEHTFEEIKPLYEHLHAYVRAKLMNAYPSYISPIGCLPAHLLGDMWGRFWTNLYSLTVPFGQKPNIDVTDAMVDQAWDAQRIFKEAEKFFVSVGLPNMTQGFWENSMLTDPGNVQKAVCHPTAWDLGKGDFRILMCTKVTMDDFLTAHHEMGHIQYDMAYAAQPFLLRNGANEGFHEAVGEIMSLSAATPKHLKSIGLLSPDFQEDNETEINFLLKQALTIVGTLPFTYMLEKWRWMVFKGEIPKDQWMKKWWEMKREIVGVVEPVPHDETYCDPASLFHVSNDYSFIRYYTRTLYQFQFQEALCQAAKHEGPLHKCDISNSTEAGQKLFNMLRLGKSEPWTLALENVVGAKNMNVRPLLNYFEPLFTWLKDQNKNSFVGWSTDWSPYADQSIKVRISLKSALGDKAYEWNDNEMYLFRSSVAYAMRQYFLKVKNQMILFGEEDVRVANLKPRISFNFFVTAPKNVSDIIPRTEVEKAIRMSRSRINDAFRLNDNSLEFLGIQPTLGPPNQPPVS
kon listing for selected binders.
Form entry: value (M⁻¹ s⁻¹) — number only.

Some binders with recorded kon:
kon reading for ACE2 variant antibody 4-69 (VHH) VHH: EVQLVESGGGLVQPGGSLRLSCAASGRTFSDDAMGWFRQAPGKEREFVAAINWSGGTTRYADSVKGRFTISADNSKNTAYLQMNSLKPEDTAVYYCATDPPLFWGQGTLVTVSS : 99400

Briefly, kon measured for ACE2 variant antibody 4-61 (VHH) VHH: EVQLVESGGGLVQPGGSLRLSCAASGRTFGDYIMGWFRQAPGKEREIVAAINWSADYTPYADSVKGRFTISADNSKNTAYLQMNSLKPEDTAVYYCATAPPNTGWHFDHWGQGTLVTVSS : 348000

Notebook: ACE2 variant antibody 3-9 (antibody, V domains shown) VH: EVQLLESGGGLVQPGGSLRLSCAASGFTFRSYAMSWVRQAPGKGLEWVSSISGGGASTYYADSVKGRFTISRDNSKNTLYLQMNSLRAEDTAVYYCARVKYLTTSSGWPRPYFDNWGQGTLVTVSS VL: DIQMTQSPSSLSASVGDRVTITCRASQSIGKYLNWYQQKPGKAPKLLIYASSTLQRGVPSRFSGSGSGTDFTLTISSLQPEDFATYYCQQSFSTPFTFGQGTKVEIK , kon read as 83600

New cases:
Looking up ACE2 variant antibody 4-25 (VHH) VHH: EVQLVESGGGLVQPGGSLRLSCAASGGTFSRYAMGWFRQAPGKEREWVSAVDSGGSTYYADSVKGRFTISADNSKNTAYLQMNSLKPEDTAVYYCAASPSLRSAWQWGQGTLVTVSS , I see its kon listed as 78700

Looking up ACE2 variant antibody 4-82 (VHH) VHH: EVQLVESGGGLVQPGGSLRLSCAASGRTFGDYAMGWFRQAPGKEREFVAAINWSGGYTRYADSVKGRFTISADNSKNTAYLQMNSLKPEDTAVYYCATDPPLFWGQGTLVTVSS , I found its kon recorded as 301000

Quick note, kon for ACE2 variant antibody 3-13 (antibody, V domains shown) VH: EVQLLESGGGLVQPGGSLRLSCAASGFTITNYAMSWVRQAPGKGLEWVSGISGSGAGTYYADSVKGRFTISRDNSKNTLYLQMNSLRAEDTAVYYCARHTWWKGAGFFDHWGQGTLVTVSS VL: DIQMTQSPSSLSASVGDRVTITCRASQSIGRYLNWYQQKPGKAPKLLIYAASSLKSGVPSRFSGSGSGTDFTLTISSLQPEDFATYYCQQSYSLPRTFGQGTKVEIK landed at 80900

# binder ACE2 variant antibody 4-78 (VHH) VHH: EVQLVESGGGLVQPGGSLRLSCAASGRTFSDDTMGWFRQAPGKEREFVAGMTWSGSSTFYADSVKGRFTISADNSKNTAYLQMNSLKPEDTAVYYCATDPPLFWGQGTLVTVSS ; its kon = 247000
